Target or test system: ERAB (L-3-hydroxyacyl-CoA dehydrogenase) (Homo sapiens, UniProt Q99714)
Sequence (Q99714 1-261): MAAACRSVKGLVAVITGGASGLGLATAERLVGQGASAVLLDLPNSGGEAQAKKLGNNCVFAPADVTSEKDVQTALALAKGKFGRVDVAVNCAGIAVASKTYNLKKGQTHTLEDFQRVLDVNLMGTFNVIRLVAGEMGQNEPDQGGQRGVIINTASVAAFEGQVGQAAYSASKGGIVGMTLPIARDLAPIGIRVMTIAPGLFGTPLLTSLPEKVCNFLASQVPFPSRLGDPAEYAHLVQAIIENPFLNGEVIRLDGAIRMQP
Assay: ERAB enzyme assay (loss of NADH absorbance at 340 nm, acetoacetyl-CoA as substrate)
Assay type: biochemical
Assay conditions: 2.5 nM enzyme preincubated with inhibitor 400 seconds at 30° C., pH 7.5, 36 uM NADH, 2% DMSO; started with acetoacetyl-CoA (38 uM)
Please go through the items and note down their IC50.
Answers are plain numbers, in µM.

Reference set (2 entries):
{"columns": ["Compound", "Value unit", "IC50"],
 "data": [
  ["C=CCOc1cccc(C(C(=O)N2CCCCCC2)n2cnc3[nH]ncc3c2=S)c1 (stereo not drawn)", "µM", 0.345],
  ["O=C(C(c1ccccc1)n1cnc2[nH]ncc2c1=S)N1CCCCCC1 (stereo not drawn)", "µM", 0.097]
]}

Read the next record carefully.
QUERY: Query (compound): O=C(C(c1ccccc1)n1cnc2[nH]ncc2c1=S)N1CCN(c2ccccc2)CC1 (stereo not drawn) ; field requested: IC50
RESULT: 0.218
